Biological target: T1, Mouse PD-1 extracellular domain, hFc tag (mouse, UniProt Q02242 25-169)
T1 construct: extracellular domain; also called mPro1.ECD.hFc; not shown: human Fc tag at C-terminus
T1 sequence (looked up): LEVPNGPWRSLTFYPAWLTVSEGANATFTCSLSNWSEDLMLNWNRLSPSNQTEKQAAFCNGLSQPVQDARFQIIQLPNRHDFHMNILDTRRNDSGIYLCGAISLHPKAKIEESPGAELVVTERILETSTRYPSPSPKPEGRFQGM
Experiment: SPR Biacore 8K; PD-1-hFc captured on anti-human Fc chip, VHH injected; 1:1 fit
I'd be grateful if you could share measured kon for these entries.
Report as a plain number; the unit M⁻¹ s⁻¹ is understood.

// kon lookup, binder = AP17R1-2H2-Z1-R1-14F3 (VHH, not shown: his- and c-Myc-tag from vector pETbac) VHH: QVQLVESGGGVVQPGGSLRLSCAASDSIDSLVNMGWYRQAPGKQRELVALIAWYITHYADFVKGRFTISRDNSKNTLYLQMNSLRAEDTAVYYCYARNIIVDYWGQGTLVTVSS , result: 270000

// kon lookup, binder = AP17R1-2H2-Z1-R1-29B6 (VHH, not shown: his- and c-Myc-tag from vector pETbac) VHH: QVQLVESGGGVVQPGGSLRLSCAASDSIDSLVNMGWYRQAPGKQRELVALIANYITHYADFVKGRFTISRDNSKNTLYLQMNSLRAEDTAVYYCYARNIYVDYWGQGTLVTVSS , result: 277000
